Tested on: S. aureus VRSA
Experiment: MIC, broth microdilution, vancomycin-resistant S. aureus (VRSA)
Type: cell-based, Staphylococcus aureus
Details: VRSA; ratio of MIC of vancomycin and MIC of analogue
hey, just use Fulfilled if measured MIC-fold improvement vs. vancomycin is less than 60, otherwise Not fulfilled

Worked examples follow.
# Compound, System Tested, Label Class
data = [
    ("CNC(CC(C)C)C(=O)NC1C(=O)NC(CC(N)=O)C(=O)NC2C(=O)NC3C(=O)NC(C(=O)NC(C(=O)NCCCNC(=O)c4ccc(C(F)(F)F)cc4)c4cc(O)cc(O)c4-c4cc3ccc4O)C(O)c3ccc(c(Cl)c3)Oc3cc2cc(c3OC2OC(CO)C(O)C(O)C2OC2CC(C)(N)C(O)C(C)O2)Oc2ccc(cc2Cl)C1O (centres unmarked)", "S. aureus VRSA", "Fulfilled"),
    ("CN[C@H](CC(C)C)C(=O)N[C@H]1C(=O)N[C@@H](CC(N)=O)C(=O)N[C@H]2C(=O)N[C@H]3C(=O)N[C@H](C(=O)N[C@H](C(=O)NCC(=O)Nc4ccc5cc6ccccc6cc5c4)c4cc(O)cc(O)c4-c4cc3ccc4O)[C@H](O)c3ccc(c(Cl)c3)Oc3cc2cc(c3O[C@@H]2O[C@H](CO)[C@@H](O)[C@H](O)[C@H]2O[C@H]2C[C@](C)(N)[C@H](O)[C@H](C)O2)Oc2ccc(cc2Cl)[C@H]1O", "S. aureus VRSA", "Not fulfilled"),
    ("CCCCCCCC[N+](C)(C)CCCNC(=O)c1ccc(NC(=O)CNC(=O)C2NC(=O)C3NC(=O)C(NC(=O)C4NC(=O)C(CC(N)=O)NC(=O)C(NC(=O)C(CC(C)C)NC)C(O)c5ccc(c(Cl)c5)Oc5cc4cc(c5OC4OC(CO)C(O)C(O)C4OC4CC(C)(N)C(O)C(C)O4)Oc4ccc(cc4Cl)C3O)c3ccc(O)c(c3)-c3c(O)cc(O)cc32)cc1 (centres unmarked)", "S. aureus VRSA", "Not fulfilled"),
]

Query: For this compound, is MIC-fold improvement vs. vancomycin lower than 60? CN[C@H](CC(C)C)C(=O)N[C@H]1C(=O)N[C@@H](CC(N)=O)C(=O)N[C@H]2C(=O)N[C@H]3C(=O)N[C@H](C(=O)N[C@H](C(=O)NCC(=O)Nc4ccc(Cl)cc4Cl)c4cc(O)cc(O)c4-c4cc3ccc4O)[C@H](O)c3ccc(c(Cl)c3)Oc3cc2cc(c3O[C@@H]2O[C@H](CO)[C@@H](O)[C@H](O)[C@H]2O[C@H]2C[C@](C)(N)[C@H](O)[C@H](C)O2)Oc2ccc(cc2Cl)[C@H]1O
Result: Fulfilled

Query: For this compound, is MIC-fold improvement vs. vancomycin lower than 60? CNC(CC(C)C)C(=O)NC1C(=O)NC(CC(N)=O)C(=O)NC2C(=O)NC3C(=O)NC(C(=O)NC(C(=O)NCCCNC(=O)c4ccc5ccccc5n4)c4cc(O)cc(O)c4-c4cc3ccc4O)C(O)c3ccc(c(Cl)c3)Oc3cc2cc(c3OC2OC(CO)C(O)C(O)C2OC2CC(C)(N)C(O)C(C)O2)Oc2ccc(cc2Cl)C1O (centres unmarked)
Result: Fulfilled

Query: For this compound, is MIC-fold improvement vs. vancomycin lower than 60? CN[C@H](CC(C)C)C(=O)N[C@H]1C(=O)N[C@@H](CC(N)=O)C(=O)N[C@H]2C(=O)N[C@H]3C(=O)N[C@H](C(=O)N[C@H](C(=O)NCCNC(=O)/C=C/c4ccc(NS(=O)(=O)c5ccc(Cl)cc5Cl)cc4)c4cc(O)cc(O)c4-c4cc3ccc4O)[C@H](O)c3ccc(c(Cl)c3)Oc3cc2cc(c3O[C@@H]2O[C@H](CO)[C@@H](O)[C@H](O)[C@H]2O[C@H]2C[C@](C)(N)[C@H](O)[C@H](C)O2)Oc2ccc(cc2Cl)[C@H]1O
Result: Not fulfilled

Query: For this compound, is MIC-fold improvement vs. vancomycin lower than 60? C#Cc1ccc(-c2ccc(C(=O)NCCCNC(=O)[C@H]3NC(=O)[C@H]4NC(=O)[C@H](NC(=O)[C@@H]5NC(=O)[C@H](CC(N)=O)NC(=O)[C@H](NC(=O)[C@@H](CC(C)C)NC)[C@H](O)c6ccc(c(Cl)c6)Oc6cc5cc(c6O[C@@H]5O[C@H](CO)[C@@H](O)[C@H](O)[C@H]5O[C@H]5C[C@](C)(N)[C@H](O)[C@H](C)O5)Oc5ccc(cc5Cl)[C@H]4O)c4ccc(O)c(c4)-c4c(O)cc(O)cc43)cc2)cc1
Result: Not fulfilled

Query: For this compound, is MIC-fold improvement vs. vancomycin lower than 60? CN[C@H](CC(C)C)C(=O)N[C@H]1C(=O)N[C@@H](CC(N)=O)C(=O)N[C@H]2C(=O)N[C@H]3C(=O)N[C@H](C(=O)N[C@H](C(=O)NCC(=O)Nc4cc(OC)cc(OC)c4)c4cc(O)cc(O)c4-c4cc3ccc4O)[C@H](O)c3ccc(c(Cl)c3)Oc3cc2cc(c3O[C@@H]2O[C@H](CO)[C@@H](O)[C@H](O)[C@H]2O[C@H]2C[C@](C)(N)[C@H](O)[C@H](C)O2)Oc2ccc(cc2Cl)[C@H]1O
Result: Fulfilled
